system: UACC-62 melanoma; test: NCI tumour cell line growth inhibition, 48 h
Listing: TGI of selected compounds

Here are 5 compounds together with their reported answers.
- COMPOUND: "BrP(NC1CCCCCC1)(c1ccccc1)(c1ccccc1)c1ccccc1"
  TGI: "15.9 µM"
- COMPOUND: "Cc1cc2nc3n(c2cc1C)C(c1c(F)cccc1F)SC3 (stereo unspecified)"
  TGI: "> 10 µM"
- COMPOUND: "COC(=O)C1CC2(c3ccc(C)cc3)C(c3ccc(C)cc3)=C(c3ccc(C)cc3)C1(c1ccc(C)cc1)S2=O (stereo unspecified)"
  TGI: "> 100 µM"
- COMPOUND: "CC(=O)O[C@H]1CC[C@@]2(C)C(=CC[C@@H]3[C@@H]2CC[C@]2(C)c4nc(N)c(C#N)cc4C[C@@H]32)C1"
  TGI: "> 100 µM"
- COMPOUND: "O=C1c2ccccc2C(=O)N1C(=S)c1ccccc1"
  TGI: "> 100 µM"

Here is another compound to look at.
### Prompt Consider the compound C=CCN1CC2CN=NC2(C#N)C1 (stereo unspecified) and give its recorded TGI.
### Response > 100 µM

* * *

tested on: SF-268 CNS; assay: NCI tumour cell line growth inhibition, 48 h
METRIC_NAME: TGI

Here are 5 compounds together with their reported answers.
- COMPOUND: "COc1ccc(C(=O)Nc2ncc(Cc3ccc(F)cc3)s2)cc1"
  TGI: "> 100 µM"
- COMPOUND: "Brc1cccc(C2(CCCC3(c4cccc(Br)n4)OCCO3)OCCO2)n1"
  TGI: "71.5 µM"
- COMPOUND: "CN(C)CCCNC(=O)c1cc2c3ccccc3[nH]c2c2ncccc12"
  TGI: "64.1 µM"
- COMPOUND: "CN(N)C(=O)NCCCl"
  TGI: "> 100 µM"
- COMPOUND: "O=C(c1ccc(O)cc1)c1ccc(C(=O)c2ccc(O)cc2)cc1"
  TGI: "> 100 µM"

### Prompt Consider the compound CC(NC(=O)C(C)C(=O)NCc1ccc(C(F)(F)F)cc1)C(N)=O (stereo unspecified) and give its recorded TGI.
### Response > 100 µM

* * *

system: CAKI-1 renal; assay: NCI tumour cell line growth inhibition, 48 h; in the data active means GI50 below about 0.43 µM; inactive means the rest
One label from this list, please: yes (1) = active, no (0) = inactive

Solved entries (count: 4):
- SMILES_STR: "c1ccc(-c2n(Cc3ccc4ccccc4n3)c3ccccc3[n+]2Cc2ccc3ccccc3n2)cc1"
  ANSWER_LABEL: "no (0)"
- SMILES_STR: "Cc1cc2nc3ccc(N=Nc4ccc(N(C)C)cc4)cc3n(-c3ccccc3)c-2cc1=N"
  ANSWER_LABEL: "yes (1)"
- SMILES_STR: "CC(C)[C@@H](C(=O)O[C@@H]1/C=C/C(=O)O[C@@H](C)CCC/C=C/[C@@H]2C[C@H](O)C[C@H]21)[N+](C)(C)C"
  ANSWER_LABEL: "no (0)"
- SMILES_STR: "COc1ccc(C(=O)Nc2ncc(Cc3ccc(F)cc3)s2)cc1"
  ANSWER_LABEL: "yes (1)"

Please examine the following record next.
### Prompt Just curious, what result did `Oc1c(I)cc(I)cc1CNCCCN(Cc1ccccn1)Cc1ccccn1` get here?
### Response no (0)

* * *

test system: HL-60(TB) leukemia; assay: NCI tumour cell line growth inhibition, 48 h; in the data active = GI50 below about 0.43 µM; inactive = the rest
One label from this list, please: active, inactive

- MOLECULE: "NC1=CC(=O)C(=O)c2cccnc21"
  ANSWER_LABEL: "inactive"
- MOLECULE: "O=C1CC(c2ccccc2)Cc2nc3ccc(Cl)cc3cc21 (stereo not given)"
  ANSWER_LABEL: "active"
- MOLECULE: "CC(=O)OCCC/C(=C\\c1ccc2ccccc2c1)[N+](=O)[O-]"
  ANSWER_LABEL: "inactive"
- MOLECULE: "Cc1cc[c-]cc1.Fc1c[c-]c(-c2ccccn2)c(F)c1.N#CCC[PH+](CCC#N)c1ccccc1.[Pt+2]"
  ANSWER_LABEL: "inactive"
- MOLECULE: "O=C1NC(=O)c2c1c1c3ccccc3ccc1c1[nH]c3ccc(Br)cc3c21"
  ANSWER_LABEL: "inactive"
- MOLECULE: "COc1cc(Nc2ncc3c(n2)-c2ccc(Cl)cc2C(c2c(F)cccc2OC)=NC3)ccc1C(=O)O"
  ANSWER_LABEL: "inactive"
- MOLECULE: "CC12C=CC(C)(O1)C1C2c2ccccc2S1(=O)=O (stereo not given)"
  ANSWER_LABEL: "inactive"
- MOLECULE: "COc1ccc(-c2nnc3n(C)c(=O)c4ccccc4n23)cc1O"
  ANSWER_LABEL: "active"
- MOLECULE: "COc1cc2c(cc1OCCCCC(=O)Nc1ccc(-c3nc4ccccc4s3)cc1)N=C[C@@H]1CCCN1C2=O"
  ANSWER_LABEL: "inactive"
- MOLECULE: "COC(=O)c1[nH]nc(-c2ccccc2)c1N1CCCCC1"
  ANSWER_LABEL: "inactive"

### Prompt Just curious, what result did O=C1Nc2ccccc2C12CC(c1ccccc1)=NN2 (stereo not given) get here?
### Response inactive

### Prompt Just curious, what result did `COc1ccc2nc(-c3ccccc3)cc(Nc3ccc(/C(C)=N/O)cc3)c2c1` get here?
### Response inactive

### Prompt Just curious, what result did `O=C(c1ccc(O)cc1)c1ccc(C(=O)c2ccc(O)cc2)cc1` get here?
### Response inactive

### Prompt Just curious, what result did `NC(=O)Nc1ccc2ncnc(Nc3ccc(Cl)cc3)c2c1` get here?
### Response inactive

### Prompt Just curious, what result did `Cc1cc(=O)c2c(O)c3c(O)cc(O)c4c5c(O)cc(O)c6c(O)c7c(=O)cc(C)c8c1c2c(c34)c(c65)c78` get here?
### Response inactive

### Prompt Just curious, what result did `COc1cc(C(=O)/C=C/c2c(-c3ccc(F)cc3)nc3sccn23)cc(OC)c1OC` get here?
### Response inactive

### Prompt Just curious, what result did `COc1ccc(/C=C/c2nc(N3CCOCC3)c3cc(F)c(F)cc3n2)cc1OC` get here?
### Response inactive

### Prompt Just curious, what result did `Cc1c(N2C(=O)/C(=C\c3ccc(O)cc3)N=C2c2ccccc2)c(=O)n(-c2ccccc2)n1C` get here?
### Response inactive

### Prompt Just curious, what result did `CC[C@](O)(C(=O)O)c1cc2n(c(=O)c1CO)Cc1cc3ccccc3nc1-2` get here?
### Response active

### Prompt Just curious, what result did `COc1ccc(N2CCN(CC(=O)N3CCN(c4nnc(-c5ccccc5)c(-c5ccccc5)n4)CC3)CC2)cc1` get here?
### Response inactive
